- Run Description: Maximum concentration achieved in rat plasma when administered perorally at a dose of 10 mg/kg
- Type: ADME, organism-based
- Parameters: dose 10 mg/kg, route oral
- Assay Context: po
Experimental Endpoint: Cmax
Answer with the number, then the unit.

-- ask Field request: Cmax | item: `N[C@](CC1c2ccccc2Oc2ccccc21)(C(=O)O)[C@H]1C[C@@H]1C(=O)O`
-- reply 64.1 ng/mL

====

- Run Description: Binding affinity for Group II Metabotropic glutamate receptor was measured using [3H]glutamate in rat forebrain membranes
- Format: cell membranes, Membrane
Experimental Endpoint: IC50 (nM)
Field format: number, assumed nM, no unit text.

-- ask Field request: IC50 | item: N[C@@](CCc1cccc(O)c1)(C(=O)O)C1C[C@@H]1C(=O)O (stereo not given in full)
-- reply 150

-- ask Field request: IC50 | item: N[C@@](CCc1ccccc1Cl)(C(=O)O)C1C[C@@H]1C(=O)O (stereo not given in full)
-- reply 260

-- ask Field request: IC50 | item: N[C@@](CCc1cccc(F)c1)(C(=O)O)C1C[C@@H]1C(=O)O (stereo not given in full)
-- reply 160

-- ask Field request: IC50 | item: CCCc1cccc(CC[C@](N)(C(=O)O)C2C[C@@H]2C(=O)O)c1 (stereo not given in full)
-- reply 570

-- ask Field request: IC50 | item: CSc1cccc(CC[C@](N)(C(=O)O)C2C[C@@H]2C(=O)O)c1 (stereo not given in full)
-- reply 410

-- ask Field request: IC50 | item: N[C@](CC1c2ccccc2Oc2ccccc21)(C(=O)O)C1C[C@H]1C(=O)O (stereo in doubt; 173)
-- reply 860

-- ask Field request: IC50 | item: N[C@@](CCc1cccc(Br)c1)(C(=O)O)C1C[C@@H]1C(=O)O (stereo not given in full)
-- reply 69

-- ask Field request: IC50 | item: N[C@@](CCc1cccc(C(F)(F)F)c1)(C(=O)O)C1C[C@@H]1C(=O)O (stereo not given in full)
-- reply 140

-- ask Field request: IC50 | item: COc1ccc(CC[C@](N)(C(=O)O)C2C[C@@H]2C(=O)O)cc1 (stereo not given in full)
-- reply 1400

-- ask Field request: IC50 | item: COc1cccc(CC[C@](N)(C(=O)O)C2C[C@@H]2C(=O)O)c1OC (stereo not given in full)
-- reply 4900

====

- Tested on: Rattus norvegicus
- Run Description: Area under curve was evaluated in rat plasma when administered perorally at a dose of 10 mg/kg for infinite hours
- Format: ADME, organism-based
- Set-up: time infinity, dose 10 mg/kg, route oral
- Assay Context: in vivo, po
Experimental Endpoint: AUC (ng·h/mL)
Field format: number, assumed ng·h/mL, no unit text.

-- ask Lab request: please report AUC under test system Rattus norvegicus for `N[C@](CC1c2ccccc2Oc2ccccc21)(C(=O)O)[C@H]1C[C@@H]1C(=O)O`
-- reply 284

====

- Tested on: Rattus norvegicus
- Run Description: Area under curve was evaluated in rat brain when administered intraperitoneally at a dose of 10 mg/kg for 4 or 6 hours
- Assay type: ADME, organism-based
- Set-up: dose 10 mg/kg, route intraperitoneal
- Assay Context: in vivo, ip
Experimental Endpoint: AUC (ng·h/mL)
Field format: number, assumed ng·h/mL, no unit text.

-- ask Field request: AUC | item: `N[C@](CC1c2ccccc2Oc2ccccc21)(C(=O)O)[C@H]1C[C@@H]1C(=O)O`
-- reply 774
